experimentalSystem: Follistatin (Homo sapiens) (UniProt P19883)
Sequence (P19883 whole entry, looked up): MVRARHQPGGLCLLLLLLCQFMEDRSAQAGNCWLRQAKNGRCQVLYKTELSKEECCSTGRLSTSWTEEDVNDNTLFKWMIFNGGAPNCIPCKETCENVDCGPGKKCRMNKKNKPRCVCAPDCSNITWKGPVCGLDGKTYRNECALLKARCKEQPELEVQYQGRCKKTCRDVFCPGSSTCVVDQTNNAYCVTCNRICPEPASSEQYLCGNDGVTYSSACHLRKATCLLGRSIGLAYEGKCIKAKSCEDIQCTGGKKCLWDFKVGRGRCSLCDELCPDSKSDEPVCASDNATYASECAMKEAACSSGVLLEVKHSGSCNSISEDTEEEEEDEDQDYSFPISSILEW
protocolText: follistatin binders on small-molecule microarrays, primary screen, biochemical, small-molecule microarray, 635/667 nm fluorescence (AID 1132)
appliedConditions: FST binding, 635 nm fluorescence, higher = more signal
Lab note: anything with composite z-score at or over 1 counts as yes; the rest go in no.

compound	classification
Cn1cccc1C(O)C1C=CC2C(=O)NC(=O)C2N1Nc1ccc(Cl)cc1Cl (stereo not drawn)	yes
COC(=O)[C@@]1(Cc2ccccc2)[C@H]2c3cc(C(=O)N(C)C)n(CCN4CNCC4=O)c3C[C@H]2CN1C(=O)c1ccccc1	no
O=C1O[C@@H](c2ccccc2)[C@@H](c2ccccc2)N2[C@@H](c3ccc(O)cc3)[C@]3(C(=O)Nc4ccc(C#CC5=CCCCC5)cc43)[C@@H](C(=O)NC[C@H](O)c3ccccc3)[C@H]12	yes

In the following, a different compound is considered.
// inclusive: composite z-score at least 1? input: `O=C(CS)NCCCCCCNC(=O)[C@H]1C[C@H]2C(=O)N[C@@H](Cc3ccccc3)C(=O)N2[C@H]1c1ccc(O)cc1`
yes

----------
# maps each entry to its z-score
protocolText: basal RPMI8226 mitochondrial membrane potential changes, profiling panel, cell-based, JC-1 fluorescence, 24 h, 100 nL compound (AID 1169)
appliedConditions: RPMI8226 myeloma, JC-1 mitochondrial potential fluorescence, higher = more signal
# print the numeric value only

Which z-score value is on record for `COc1cccc(/C=C/C=O)c1` ?
-0.109

Which z-score value is on record for `COC(=O)c1ccc([C@H](NC(=O)c2ccco2)[C@]2(C)C[C@H]2C2CCCCC2)cc1` ?
-0.89

Which z-score value is on record for `O=C1O[C@@H](c2ccccc2)[C@@H](c2ccccc2)N2[C@@H](c3ccc(O)cc3)[C@]3(C(=O)Nc4ccc(C#CC5(O)CCCCCC5)cc43)[C@@H](C(=O)NC[C@H](O)c3ccccc3)[C@H]12` ?
-0.66

Which z-score value is on record for `Cc1ccc(S[C@]2(C(=O)O)CC(=O)N(Cc3ccccc3Cl)[C@@H]2c2ccc(CO)cc2I)cc1` ?
-0.615

Which z-score value is on record for CCCCC(O)C1C=CC2C(=O)N(c3ccccc3)C(=O)C2N1Nc1ccc(C(C)C)cc1 (configuration not stated) ?
-0.749

Which z-score value is on record for `C=CCOC(=O)[C@H]1[C@@H]2C(=O)O[C@@H](c3ccccc3)[C@@H](c3ccccc3)N2[C@@H](c2ccc(OCCOC(=O)[C@@H]3C[C@@H]4C(=O)N[C@@H](CCCCNC(C)=O)C(=O)N4[C@@H]3c3ccc(O)cc3)cc2)[C@]12C(=O)Nc1ccc(I)cc12` ?
-0.744

Which z-score value is on record for C=CCC(OC(C)=O)[C@@H]1[C@@H](N(Cc2cc3ccccc3o2)C(=O)Cc2ccc(F)cc2)c2cc(OCCCO)ccc2N1C(=O)c1ccc2ccccc2c1 (some centres not stated) ?
-0.159

----------
# maps each entry to its composite z-score
experimentalSystem: Alpha-bungarotoxin (Bungarus multicinctus) (UniProt P60615)
Sequence (P60615 whole entry, looked up): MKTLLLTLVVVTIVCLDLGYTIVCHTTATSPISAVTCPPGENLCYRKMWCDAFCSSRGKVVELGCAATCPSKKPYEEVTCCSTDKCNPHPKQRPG
protocolText: alpha-bungarotoxin binders on microarray, profiling panel, artefact control for SMM control protein annotation, biochemical, small-molecule microarray, Alexa647 label, 635/667 nm fluorescence (AID 1117)
appliedConditions: alpha-BTX-A647 binding fluorescence, higher = more signal
# print the numeric value only

Consider the worked cases shown below.
compound	property	result
CC(C)N1C(=O)c2ccccc2[C@@H](C(=O)NC2CC2)[C@@H]1c1ccc(CO)cc1	composite z-score	0.654
COCCOC(=O)N1C(=O)[C@@]2(c3cc(C#CC4=CCCCC4)ccc31)[C@H](C(=O)N1CCCCCCC1)[C@H]1C(=O)O[C@H](c3ccccc3)[C@H](c3ccccc3)N1[C@@H]2c1ccc(O)cc1	composite z-score	0.743
CCCCC(=C=CC[C@@H](O)c1ccccc1OCCO)C[C@@H](O)COCc1ccccc1	composite z-score	1.02

Which composite z-score value is on record for `CC(C)(C)OC(=O)CC[C@@]1(C(=O)NCc2ccccc2)N=C(c2ccc(OCCCO)cc2)O[C@@H]1c1ccccc1N=[N+]=[N-]` ?
2.1

Which composite z-score value is on record for COc1ccc(C(O)C2C=CC3C(=O)N(c4ccccc4)C(=O)C3N2Nc2ccc([N+](=O)[O-])cc2)cc1 (centres undefined) ?
1.32

Which composite z-score value is on record for `O=C(NCC(F)(F)F)[C@@H]1c2ccccc2C(=O)N(Cc2ccccc2C(F)(F)F)[C@H]1c1ccc(CO)cc1` ?
-0.695

----------
experimentalSystem: Torsin-1A (Homo sapiens)
protocolText: torsin A binders from cell lysate, primary screen, small-molecule microarray, wild-type, 635/667 nm (AID 1149)
appliedConditions: COS7 hTOR1A-WT lysate, 635 nm fluorescence, higher = more signal
# maps each entry to its composite z-score
# print the numeric value only

compound	experimentalSystem	property	result
COc1ccc([Si](C)(C)[C@@H]2[C@@H](CC(=O)N(CCO)Cc3ccccc3)O[C@]3(C(=O)N(Cc4cccc(N5CCOC5=O)c4)c4ccccc43)[C@H]2C)cc1	Torsin-1A (Homo sapiens)	composite z-score	0.787
CC1=C[C@@]2(CO)C(=O)[C@]3(CO3)[C@@H]1[C@H]1[C@]2(C)C=C(CO)C(=O)[C@]12CO2	Torsin-1A (Homo sapiens)	composite z-score	0.145
Cc1cc(C)c(C(O)C2C=CC3C(=O)NC(=O)C3N2Nc2ccc(Cl)cc2Cl)c(C)c1 (configuration not stated)	Torsin-1A (Homo sapiens)	composite z-score	0.148
CCOC(=O)[C@H]1[C@@H]2C(=O)N3CCC[C@H]3[C@H](O[Si](C(C)C)(C(C)C)C(C)C)[C@H]2C=C2CCN(S(=O)(=O)c3ccc(C)cc3)C[C@H]21	Torsin-1A (Homo sapiens)	composite z-score	0.353
O=C(N1CCCCC1)[C@@]1(CCS(=O)(=O)c2ccccc2)COC(c2ccc(OCCCO)cc2)=N1	Torsin-1A (Homo sapiens)	composite z-score	1.19

Enter reported composite z-score observed with Torsin-1A (Homo sapiens) for `CC(=O)NCCCC[C@@H]1NC(=O)[C@H]2C[C@@H](C(=O)NCCCC[N+](C)(C)C)[C@@H](c3cccc(OCCO)c3)N2C1=O`
1.07

Enter reported composite z-score observed with Torsin-1A (Homo sapiens) for O=C1OCC=C[C@H]2OC34C=CCN(Cc5ccccc5)C(=O)[C@H]3N(CCCCCCO)C(=O)[C@@H]4[C@@H]12 (some centres not stated)
1.6

----------
experimentalSystem: Concanavalin-A (Canavalia ensiformis)
protocolText: ConA small-molecule binders, primary screen, artefact control for SMM control protein annotation, biochemical, small-molecule microarray, Alexa647 label, 635 nm (AID 1127);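 note: z combines 667 nm emission intensity with signal-to-noise across three replicate slides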
appliedConditions: ConA-A647 binding fluorescence, higher = more signal
property: composite z-score
# print the numeric value only

Consider the worked cases shown below.
molecule	property	result
O=C1OCC=C[C@H]2OC34C=CCN(Cc5ccccc5)C(=O)[C@H]3N(CCCCCCO)C(=O)[C@@H]4[C@@H]12 (stereo partly specified)	composite z-score	-0.159
CN(C)CCCNC(=O)[C@@]1(c2ccc([N+](=O)[O-])cc2)CC(=O)N(CC23CC4CC(CC(C4)C2)C3)[C@@H]1c1ccc(CO)cc1I	composite z-score	1.14
CCCCCCc1nc(-c2cc(C)c(OC)c(C)c2)c(C)c2c1[Si](C(C)C)(C(C)C)OC2	composite z-score	-0.112

Which composite z-score value is on record for `COC(=O)c1c2oc(c1C(=O)OC)C(=O)N(C)Cc1cn(nn1)C[C@H](Cc1ccccc1)NC(=O)N[C@H](CO)CC2` ?
-1.17

Which composite z-score value is on record for `COC(=O)[C@@]1(Cc2ccccc2N=[N+]=[N-])N=C(c2ccc(OCCCO)cc2)O[C@H]1c1ccccc1N=[N+]=[N-]` ?
0.851

Which composite z-score value is on record for `CN(C)CCCNC(=O)[C@@H]1c2ccccc2C(=O)N(Cc2ccccc2Cl)[C@H]1c1ccc(CO)cc1` ?
-0.284

----------
# maps each entry to its composite z-score
Tested on: XIP peptide (Xip251-270) binding
protocolText: small-molecule binders of XIP peptide, primary screen, biochemical, small-molecule microarray, fluorescence 635/667 nm, 0.1 µg/mL protein (AID 1182)
appliedConditions: fluorescent protein binding, 635 nm, higher = more signal, called active from +8 up or from −8 down
# print the numeric value only

Consider the worked cases shown below.
compound	composite z-score
COC(=O)c1cn(C[C@@H](Cc2ccccc2)NC(=O)N[C@H](CO)CCc2oc(C(C)=O)c(C(=O)OC)c2C(=O)OC)nn1	0.224
CCCNC(=O)[C@@]1(c2ccc([N+](=O)[O-])cc2)CC(=O)N(C2CCCCC2)[C@@H]1c1ccc(CO)cc1	2.45
COc1ccc(CCNC(=O)[C@@]2(Sc3ccc(C)cc3)CC(=O)N(C3Cc4ccccc4C3)[C@@H]2c2ccc(CO)cc2)cc1	0.984
CC(=O)NCCCC[C@@H]1NC(=O)[C@@H]2C[C@H](C(=O)NCCCC[N+](C)(C)C)[C@H](c3ccc(O)cc3)N2C1=O	2.41

Enter reported composite z-score observed with XIP peptide (Xip251-270) binding for CN(C)c1ccc(C(O)C2C=CC3C(=O)N(c4ccccc4)C(=O)C3N2Nc2ccc([N+](=O)[O-])cc2)cc1 (configuration not stated)
-0.0383

Enter reported composite z-score observed with XIP peptide (Xip251-270) binding for CC[C@H]1C2=C3C(CC[C@H]4C(OCc5ccc(F)cc5C(F)(F)F)OC[C@](C)([C@@H]34)N(C(=O)OC(C)(C)C)C2)C(COC)C1COC (some centres not stated)
0.716

Enter reported composite z-score observed with XIP peptide (Xip251-270) binding for `C=CCOC(=O)[C@H]1[C@@H]2C(=O)O[C@@H](c3ccccc3)[C@@H](c3ccccc3)N2[C@@H](c2ccc(OCCOC(=O)[C@H]3C[C@H]4C(=O)N[C@@H](CC(C)C)C(=O)N4[C@H]3c3cccc(OCCO)c3)cc2)[C@]12C(=O)Nc1ccc(I)cc12`
0.124
